assayed_target: Recombinant IKKβ (Homo sapiens, UniProt O14920)
Construct: purchased Millipore, Dundee, UK
Sequence (O14920 whole entry): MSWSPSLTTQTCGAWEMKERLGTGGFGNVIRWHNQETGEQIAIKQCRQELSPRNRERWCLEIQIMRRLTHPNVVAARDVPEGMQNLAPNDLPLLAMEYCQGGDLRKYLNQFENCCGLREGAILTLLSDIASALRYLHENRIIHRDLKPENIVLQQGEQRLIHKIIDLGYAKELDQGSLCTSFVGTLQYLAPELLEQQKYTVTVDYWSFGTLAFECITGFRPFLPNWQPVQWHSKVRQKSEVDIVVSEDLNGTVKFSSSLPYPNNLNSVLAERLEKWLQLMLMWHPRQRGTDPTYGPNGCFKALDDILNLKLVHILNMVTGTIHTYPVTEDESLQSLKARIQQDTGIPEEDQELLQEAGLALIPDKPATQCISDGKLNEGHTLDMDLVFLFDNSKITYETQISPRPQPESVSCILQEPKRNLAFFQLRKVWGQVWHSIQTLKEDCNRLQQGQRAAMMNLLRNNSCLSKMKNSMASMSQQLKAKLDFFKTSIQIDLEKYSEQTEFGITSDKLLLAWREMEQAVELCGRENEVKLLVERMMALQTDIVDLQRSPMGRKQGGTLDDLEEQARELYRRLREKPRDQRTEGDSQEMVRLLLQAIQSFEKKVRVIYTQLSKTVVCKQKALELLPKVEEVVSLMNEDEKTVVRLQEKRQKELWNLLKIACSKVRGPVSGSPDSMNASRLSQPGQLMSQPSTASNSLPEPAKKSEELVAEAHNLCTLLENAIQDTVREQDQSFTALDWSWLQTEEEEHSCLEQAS
run_description: DELFIA IKKβ kinase assay (apparent Ki, Cheng-Prusoff)
Format: biochemical
condition_set: DELFIA assay (first line of an example)
Answer each item with its documented pKi.
# reply with the number alone; pKi is -log10 of concentration in mol/L

**Q:** Find the recorded pKi belonging to CCOC(=O)Nc1cc(-c2cc(C#CC(C)(C)C)c3[nH]nc(N)c3c2)ccn1 and report it.
**A:** 5.80

**Q:** What value of pKi has been recorded for this entry: CC(C)(C)C#Cc1cc(-c2ccnc3[nH]c(C4CCCC4)cc23)cc2c(N)n[nH]c12
**A:** 5.94

**Q:** Return reported pKi; argument: Nc1n[nH]c2c(C#Cc3ccccc3)cc(-c3ccnc4[nH]c(CCN5CCOCC5)cc34)cc12
**A:** 6.48

**Q:** Which value of pKi has been reported for Nc1n[nH]c2c(C#CC3CC3)cc(-c3ccnc4[nH]ccc34)cc12 in the records?
**A:** 6.74

**Q:** Reported pKi for Nc1n[nH]c2c(C#CC3CC3)cc(-c3ccnc(NC(=O)C4CC4)c3)cc12 : what is it?
**A:** 6.24

**Q:** Return reported pKi; argument: Nc1n[nH]c2c(C#CCCCCN3CCCCC3)cc(-c3ccnc4[nH]ccc34)cc12
**A:** 5.60

**Q:** I have this compound here, Nc1n[nH]c2ccc(-c3ccnc4[nH]c(C5CC5)cc34)cc12 , and I need its recorded pKi.
**A:** 7.20

**Q:** Look up pKi: CC(C)(C)NCc1cc2c(-c3ccc4[nH]nc(N)c4c3)ccnc2[nH]1
**A:** 5.40

**Q:** May I ask what pKi has been recorded for NCCNC(=O)c1cc2c(-c3ccc4[nH]nc(N)c4c3)ccnc2[nH]1 ?
**A:** 6.91

**Q:** What pKi value was documented for this compound, COC(=O)Nc1cc(-c2cc(-c3ccc(NC(C)=O)cc3)c3[nH]nc(N)c3c2)ccn1 ?
**A:** 7.06

**Q:** Would you kindly share the measured pKi for Nc1n[nH]c2c(C#CC3CCOCC3)cc(-c3ccnc(NC4COC4)c3)cc12 ?
**A:** 6.30

**Q:** Suppose we examine the compound CC(C)(C)C#Cc1cc(-c2ccnc3[nH]c(C(F)F)nc23)cc2c(N)n[nH]c12 ; what pKi value has been reported?
**A:** 5.87

**Q:** What does the record list as pKi for Cc1coc(Nc2cc(-c3cc(C#CC(C)(C)C)c4[nH]nc(N)c4c3)ccn2)n1 ?
**A:** 6.08

**Q:** Fill in the blank: the reported pKi of COCCNC(=O)c1cc2c(-c3ccc4[nH]nc(N)c4c3)ccnc2[nH]1 is ____.
**A:** 7.52

**Q:** Please give the measured pKi for this compound: COC(=O)Nc1cc(-c2cc(CCC(C)(C)C)c3[nH]nc(N)c3c2)ccn1
**A:** 6.56

###

assayed_target: Recombinant IKKα (Homo sapiens)
Construct: purchased Millipore, Dundee, UK
Sequence (O15111 whole entry): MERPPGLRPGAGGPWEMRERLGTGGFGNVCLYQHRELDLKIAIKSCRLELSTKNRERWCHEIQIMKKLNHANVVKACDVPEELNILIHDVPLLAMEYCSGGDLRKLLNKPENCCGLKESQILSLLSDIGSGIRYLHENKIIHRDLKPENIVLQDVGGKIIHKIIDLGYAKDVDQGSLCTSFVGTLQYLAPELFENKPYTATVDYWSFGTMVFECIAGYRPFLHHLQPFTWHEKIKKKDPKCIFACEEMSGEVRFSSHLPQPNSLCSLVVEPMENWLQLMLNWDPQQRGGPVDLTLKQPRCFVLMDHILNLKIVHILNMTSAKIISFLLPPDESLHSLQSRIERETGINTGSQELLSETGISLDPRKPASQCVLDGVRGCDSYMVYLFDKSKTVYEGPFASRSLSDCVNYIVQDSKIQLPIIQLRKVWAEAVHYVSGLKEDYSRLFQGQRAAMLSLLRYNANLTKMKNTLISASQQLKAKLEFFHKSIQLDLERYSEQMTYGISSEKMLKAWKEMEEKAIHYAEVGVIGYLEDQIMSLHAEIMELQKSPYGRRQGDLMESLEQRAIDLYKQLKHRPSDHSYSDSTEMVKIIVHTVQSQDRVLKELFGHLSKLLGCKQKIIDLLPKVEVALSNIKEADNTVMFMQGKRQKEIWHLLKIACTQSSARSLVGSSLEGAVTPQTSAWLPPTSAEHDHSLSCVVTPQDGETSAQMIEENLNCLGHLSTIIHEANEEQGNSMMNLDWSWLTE
run_description: DELFIA IKKα kinase assay (apparent Ki, Cheng-Prusoff)
Format: biochemical
condition_set: non-italicised figure: DELFIA assay
pKi: −log10 of the molar value.
Label 0.0 if pKi falls below 8; label 1.0 in every other case.

**Q:** Threshold query (pKi >= 8) on Cc1cc(S(N)(=O)=O)ccc1-c1cc(-c2ccnc(N)c2)cc2c(N)n[nH]c12
**A:** 0.0

**Q:** Say whether Cc1cc2c(-c3ccc4[nH]nc(N)c4c3)ccnc2[nH]1 shows pKi of 8 or more.
**A:** 1.0

**Q:** Has Nc1nccc(-c2ccc3[nH]nc(N)c3c2)c1C#CC1(O)CCCCCC1 a recorded pKi greater than or equal to 8?
**A:** 0.0
